Entries and their Minimal Inhibitory Concentration (MIC) values follow.
test system: E. coli ATCC 25922; test: MIC, broth macrodilution (CLSI), E. coli ATCC 25922; format: cell-based

>  <Molecule>
NCC1OC(OC2C(N)CC(N)C(OC3OC(COC(=O)Nc4ccccc4)C(OC(=O)Nc4ccccc4)C(N)C3OC(=O)Nc3ccccc3)C2OC(=O)Nc2ccccc2)C(OC(=O)Nc2ccccc2)C(OC(=O)Nc2ccccc2)C1OC(=O)Nc1ccccc1.O=C(O)C(F)(F)F.O=C(O)C(F)(F)F.O=C(O)C(F)(F)F.O=C(O)C(F)(F)F (stereo not drawn) [Compound 5]

>  <Minimal Inhibitory Concentration (MIC)>
>256 µg/mL

$$$$
>  <Molecule>
COCC1OC(OC2C(N)CC(N)C(OC3OC(CN)C(OC)C(OC)C3OC)C2OC)C(OC)C(N)C1OC.O=C(O)C(F)(F)F.O=C(O)C(F)(F)F.O=C(O)C(F)(F)F.O=C(O)C(F)(F)F (stereo not drawn) [Compound 17]

>  <Minimal Inhibitory Concentration (MIC)>
>256 µg/mL

$$$$
>  <Molecule>
COCC1OC(OC2C(NC(=O)C(CCN)OC)CC(N)C(OC3OC(CN)C(OC)C(OC)C3OC)C2OC)C(OC)C(N)C1OC.O=C(O)C(F)(F)F.O=C(O)C(F)(F)F.O=C(O)C(F)(F)F.O=C(O)C(F)(F)F (stereo not drawn) [Compound 20]

>  <Minimal Inhibitory Concentration (MIC)>
>256 µg/mL

$$$$
